Attribution: patent EP0938471B1

# TARGET SYSTEM: TACE (Homo sapiens, UniProt P78536)
# Sequence (P78536 215-824): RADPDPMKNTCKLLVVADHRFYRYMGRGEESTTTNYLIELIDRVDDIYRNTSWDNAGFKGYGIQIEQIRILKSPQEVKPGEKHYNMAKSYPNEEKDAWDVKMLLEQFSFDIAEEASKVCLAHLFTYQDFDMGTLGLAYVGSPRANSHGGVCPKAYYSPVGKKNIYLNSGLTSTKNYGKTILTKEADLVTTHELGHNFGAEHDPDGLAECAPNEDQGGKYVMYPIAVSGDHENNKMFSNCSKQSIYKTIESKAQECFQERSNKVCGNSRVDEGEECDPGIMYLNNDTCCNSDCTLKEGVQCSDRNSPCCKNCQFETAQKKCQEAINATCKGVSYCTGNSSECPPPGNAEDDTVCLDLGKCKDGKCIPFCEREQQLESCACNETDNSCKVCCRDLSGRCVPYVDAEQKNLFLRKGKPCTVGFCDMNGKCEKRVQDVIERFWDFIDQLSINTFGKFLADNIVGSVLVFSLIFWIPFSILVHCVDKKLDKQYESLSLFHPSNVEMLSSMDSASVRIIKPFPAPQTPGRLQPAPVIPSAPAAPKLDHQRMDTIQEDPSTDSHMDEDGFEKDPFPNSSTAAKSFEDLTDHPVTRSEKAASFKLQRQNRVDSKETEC
# PROCEDURE TEXT: TACE inhibition (fluorescent peptidyl substrate)
# Type: biochemical
# APPLIED CONDITIONS: at 1µM concentration
ENDPOINT NAME: inhibition at 1 µM (%)

[
  {
    "SMI": "CCCCCCCCN(c1c(CN2CCN(C)CC2)cccc1C(=O)NO)S(=O)(=O)c1ccc(OC)cc1",
    "QUANTITATIVE READOUT": 47
  }
]

I. Cc1cccc(C(=O)NO)c1N(Cc1cccnc1)S(=O)(=O)c1ccc(-c2cc3ccccc3s2)cc1
II. COc1ccc(S(=O)(=O)N(CC(=O)N2CCN(C)CC2)c2c(C)cccc2C(=O)NO)cc1
Of I versus II , which is the one with smaller reported inhibition at 1 µM? Answer format: the label of the selected item.
I
(I: 6%, II: 38%)

a. Cc1cccc(C(=O)NO)c1N(Cc1cccnc1)S(=O)(=O)c1ccc(-c2ccc3c(c2)OCO3)cc1
b. COc1ccc(S(=O)(=O)N(Cc2ccccc2)c2c(OCCCO)cccc2C(=O)NO)cc1
Of a versus b , which is the one with smaller reported inhibition at 1 µM? Answer format: the label of the selected item.
a
(a: 9%, b: 50%)

A. COc1ccc(-c2ccc(S(=O)(=O)N(Cc3cccnc3)c3c(C)cccc3C(=O)NO)cc2)c(OC)c1
B. COc1ccc(S(=O)(=O)N(Cc2ccccc2)c2c(C#N)cc(C)cc2C(=O)NO)cc1
Of A versus B , which is the one with smaller reported inhibition at 1 µM? Answer format: the label of the selected item.
A

1. COc1ccc(S(=O)(=O)N(Cc2ccccc2)c2c(C)ccc(C)c2C(=O)NO)cc1
2. C#Cc1ccc(S(=O)(=O)N(Cc2cccnc2)c2c(C)cccc2C(=O)NO)cc1
So which one has the bigger inhibition at 1 µM here, 1 or 2 ? Answer format: the label of the selected item.
2
(2: 43%, 1: 7%)
